- Test system: HCT-116 cells
- experiment.description: MTT cell viability assay, HCT-116
- Assay type: cell-based, human
- experimental.conditions: 48 h, read-out: Cytotoxicity IC50, HCT-116
Under this convention, yes denotes IC50 strictly below 20 µM and no denotes IC50 at or above 20 µM.

Reference set, count: 5
# compound, category.label
rows = [
    ("CC1=C(CO)C(=O)OC(C(C)C2CCC3C4CC5OC56C(O)C5ON=C(c7ccc(Cl)cc7Cl)C5C(=O)C6(C)C4CCC23C)C1 (stereo not shown)", "no"),
    ("CC1=C(CO)C(=O)OC(C(C)C2CCC3C4CC5OC56C(O)C5ON=C(c7ccc(C(F)(F)F)cc7)C5C(=O)C6(C)C4CCC23C)C1 (stereo not shown) [W-11a]", "no"),
    ("CC1=C(CO)C(=O)OC(C(C)C2CCC3C4CC5OC56C(O)C5ON=C(c7ccc([N+](=O)[O-])cc7)C5C(=O)C6(C)C4CCC23C)C1 (stereo not shown) [W-2a, 4-nitrophenyl-2-isoxazoline withaferin A]", "yes"),
    ("CC1=C(CO)C(=O)OC(C(C)C2CCC3C4CC5OC56C(O)C5ON=C(c7ccc(Br)cc7)C5C(=O)C6(C)C4CCC23C)C1 (stereo not shown) [W-3b, 4-bromophenyl-2-isoxazoline withaferin A]", "yes"),
    ("CC1=C(CO)C(=O)OC(C(C)C2CCC3C4CC5OC56C(O)C5ON=C(c7ccc(F)cc7)C5C(=O)C6(C)C4CCC23C)C1 (stereo not shown) [W-4b]", "no"),
]

Is IC50 of CC1=C(CO)C(=O)OC(C(C)C2CCC3C4CC5OC56C(O)C5ON=C(c7ccc(Br)cc7)C5C(=O)C6(C)C4CCC23C)C1 (stereo not shown) [W-3a, 4-bromophenyl-2-isoxazoline withaferin A] strictly below 20 µM?
no

Then CC1=C(CO)C(=O)OC(C(C)C2CCC3C4CC5OC56C(O)C5ON=C(c7ccc(C(F)(F)F)cc7)C5C(=O)C6(C)C4CCC23C)C1 (stereo not shown) [W-11b] ?
yes

Next entry: CC1=C(CO)C(=O)OC(C(C)C2CCC3C4CC5OC56C(O)C5ON=C(c7ccncc7)C5C(=O)C6(C)C4CCC23C)C1 (stereo not shown)
no

Consider next the compound CC1=C(CO)C(=O)OC(C(C)C2CCC3C4CC5OC56C(O)C5ON=C(c7ccc([N+](=O)[O-])cc7)C5C(=O)C6(C)C4CCC23C)C1 (stereo not shown) [W-2b, 4-nitrophenyl-2-isoxazoline withaferin A] in the same way.
yes
